Value source: ChEMBL document CHEMBL1155924

Molecular target: Phosphatidylinositol 4,5-bisphosphate 3-kinase catalytic subunit delta isoform (Homo sapiens, UniProt O00329)
Sequence (O00329 whole entry, canonical isoform): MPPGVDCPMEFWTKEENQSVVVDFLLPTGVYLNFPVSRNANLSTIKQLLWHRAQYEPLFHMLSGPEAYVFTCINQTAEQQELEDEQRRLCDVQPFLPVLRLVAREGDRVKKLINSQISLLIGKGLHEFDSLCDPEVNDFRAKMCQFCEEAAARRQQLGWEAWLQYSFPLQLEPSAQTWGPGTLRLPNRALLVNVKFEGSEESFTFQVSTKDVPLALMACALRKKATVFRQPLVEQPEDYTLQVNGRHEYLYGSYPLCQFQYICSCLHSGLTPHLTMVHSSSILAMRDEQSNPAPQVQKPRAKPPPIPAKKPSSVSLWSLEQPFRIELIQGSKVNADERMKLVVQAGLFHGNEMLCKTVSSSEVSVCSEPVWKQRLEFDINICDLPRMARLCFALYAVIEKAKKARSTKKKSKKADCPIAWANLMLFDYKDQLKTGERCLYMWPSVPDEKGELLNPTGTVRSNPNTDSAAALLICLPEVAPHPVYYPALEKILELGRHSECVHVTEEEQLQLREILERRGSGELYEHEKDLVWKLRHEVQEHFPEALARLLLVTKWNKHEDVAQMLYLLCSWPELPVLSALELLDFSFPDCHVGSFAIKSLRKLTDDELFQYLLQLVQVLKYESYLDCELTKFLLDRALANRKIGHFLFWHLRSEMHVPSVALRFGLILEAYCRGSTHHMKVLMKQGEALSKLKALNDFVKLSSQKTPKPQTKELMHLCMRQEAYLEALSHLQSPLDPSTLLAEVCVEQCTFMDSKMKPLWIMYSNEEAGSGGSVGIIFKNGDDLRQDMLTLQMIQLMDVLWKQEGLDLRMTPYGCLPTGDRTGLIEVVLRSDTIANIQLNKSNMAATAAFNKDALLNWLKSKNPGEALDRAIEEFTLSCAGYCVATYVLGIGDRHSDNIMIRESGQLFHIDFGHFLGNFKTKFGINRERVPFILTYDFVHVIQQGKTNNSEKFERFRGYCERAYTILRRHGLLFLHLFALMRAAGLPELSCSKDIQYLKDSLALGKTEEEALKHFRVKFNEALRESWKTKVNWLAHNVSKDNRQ
Test: Inhibition of PI3K delta
As shown below, each of these compounds has a reported IC50 value.

Known IC50 results, listed for orientation:
CC1(C)CC(=O)c2sc(N3CCOc4ccc(-c5cn[nH]c5)cc43)nc2C1: 17 nM
CC1(C)CC(=O)c2sc(N3CCOc4ccc(-c5cccnc5)cc43)nc2C1: 20 nM
CC1(C)Cc2nc(N3CCOc4ccccc43)sc2C(=O)N1: 1630 nM

Qu. Which value of IC50 has been reported for `CC1(C)Cc2nc(N3CCOc4cc(F)ccc43)sc2C(=O)N1` in the records?
Ans. 783 nM

Qu. Which value of IC50 has been reported for `CC1(C)Cc2nc(N3CCOc4cnccc43)sc2C(=O)N1` in the records?
Ans. > 20000 nM

Qu. Which value of IC50 has been reported for `CC1(C)CC(=O)c2sc(N3CCOc4ccc(-c5ccncc5)cc43)nc2C1` in the records?
Ans. 94 nM

Qu. Which value of IC50 has been reported for `CC1(C)Cc2nc(N3CCOc4c(F)cccc43)sc2C(=O)N1` in the records?
Ans. 11200 nM

Qu. Which value of IC50 has been reported for `CC1(C)CC(=O)c2sc(N3CCOc4ccc(-c5ccccc5)cc43)nc2C1` in the records?
Ans. 80 nM

Qu. Which value of IC50 has been reported for `CC1(C)CC(=O)c2sc(N3CCOc4cc(Br)ccc43)nc2C1` in the records?
Ans. 549 nM

Qu. Which value of IC50 has been reported for `CC1(C)CC(=O)c2sc(N3CCOc4ncccc43)nc2C1` in the records?
Ans. 5730 nM

Qu. Which value of IC50 has been reported for `CC1(C)Cc2nc(N3CCOc4ccc(-c5ncccn5)cc43)sc2C(=O)N1` in the records?
Ans. 123 nM
